- Tested on: U-251
- Method notes: NCI tumour cell line growth inhibition, 48 h
Activity calls are given as the source filed them. Cut-off read from the data, not from the text of the source: active = GI50 up to about 1.1 µM and inactive = higher.
Tick one outcome: 1 = active, 0 = inactive

Some solved cases for reference:
N=c1oc2c(Br)cc(Br)cc2cc1C(=O)Nc1ccccn1    0
CCOC(=O)c1nc2cc(C(F)(F)F)ccc2nc1Oc1ccc(C#N)cc1    0
C=C1CC(C)(c2cccc(Nc3nc4ccccc4c4occc34)c2)OC1=O (stereo not given)    0
O=C1Nc2cccc(Cl)c2/C1=C\c1c(Cl)nc2sccn12    0

Fill in: this test's call for "CSc1ccccc1P(CCP(c1ccccc1SC)c1ccccc1SC)c1ccccc1SC" is ___ 0

Fill in: this test's call for Cc1cc(O)cc2c1O[C@@]1(C)CCC3[C@@]4(C)CC[C@H](O)C(C)(C)C4CC[C@@]3(C)[C@H]1C2 (stereo not given in full) is ___ 0

Fill in: this test's call for CC/C=C/c1cc2cc[nH]c2c2c1C(C)C[C@@H]2C (stereo not given in full) is ___ 0

Fill in: this test's call for CC(=O)OCC1OC(n2c(Br)nc3c2c(=O)n(C)c(=O)n3C)C(OC(C)=O)C1OC(C)=O (stereo not given) is ___ 0

Fill in: this test's call for "Cn1nc2ccc3nccc(N4CCN(CCO)CC4)c3c2n1" is ___ 0

Fill in: this test's call for "Cn1c(=O)c2c3ccccc3n(C)c2n(C)c1=O" is ___ 0

Fill in: this test's call for O=S(=O)(/C=C/C=C/[S+]([O-])c1ccccc1)c1ccccc1 (stereo not given) is ___ 0

* * *

- Tested on: Hs-578T
- Method notes: NCI tumour cell line growth inhibition, 48 h
Calls of active or inactive are those of the source. Rule as the data show it: active = GI50 up to about 1.1 µM and inactive = higher.
Quantity name: GI50

O=C1c2cccc3cc([N+](=O)[O-])cc(c23)C(=O)N1c1ccc(OCCN2CCCC2)cc1    24.9 µM (inactive)
Clc1nc(Cl)nc(NC23CC4CC(CC(C4)C2)C3)n1    11.8 µM (inactive)
O=C1Cc2c([nH]c3ccccc23)C2(CC3CCCCN13)OCCO2 (centres undefined)    89.9 µM (inactive)

Please report the recorded GI50 for "CCC/C(Cl)=N/OC(NC(=O)OCC)(C(F)(F)F)C(F)(F)F" . 34.5 µM (inactive)

Please report the recorded GI50 for "CCOP(=O)(OCC)c1ccc(=O)[nH]c1-c1cccs1" . > 100 µM (inactive)

* * *

- Test system: OVCAR-5
- Method notes: NCI tumour cell line growth inhibition, 48 h
Calls of active or inactive are those of the source. No stated cut-off is given here; in the data, active = GI50 up to about 1.1 µM and inactive = higher.
Tick one outcome: active, inactive

CC(=O)OCCOCBr    inactive
O=C(O)CN(CC(=O)O)c1ccccc1    inactive
Cc1cc2ccccc2oc(=O)/c1=N\Nc1ccccc1    inactive
CCC1(O)C(=O)OCc2c1cc1n(c2=O)Cc2c-1nc1ccccc1c2OC (configuration not stated)    active
CCCC(Sc1nc(N)nc2nc[nH]c12)C(=O)O (configuration not stated)    inactive

Fill in: this test's call for CN(C(=O)C12C3C4C5C3C1(C(=O)C13C6C7C8C6C1C8C73)C5C42)C(C)(C)C (configuration not stated) is ___ inactive

Fill in: this test's call for CN(C)CCCN1CCc2c([nH]c3ccccc23)C1c1cccnc1 (configuration not stated) is ___ inactive

Fill in: this test's call for "CC(=O)Oc1ccc2cc(Oc3ccccc3)c(=O)oc2c1" is ___ inactive

Fill in: this test's call for "Cc1ccc2nc(-c3ccc(NC(=O)c4ccc(N)cc4)c(S(=O)(=O)O)c3)sc2c1" is ___ inactive

Fill in: this test's call for O=C1NC2C3CC(OCc4ccccc4)(OCc4ccccc4)C2OC3O1 (configuration not stated) is ___ inactive

Fill in: this test's call for "NC1=C(Cl)C(=O)c2ccccc2C1=O" is ___ inactive

Fill in: this test's call for "CCOC(=O)c1[nH]c2nc(SC)nc(NC)c2c1N" is ___ inactive

Fill in: this test's call for O=C1CC(O)C=C1Nc1ccc(Cl)cc1 (configuration not stated) is ___ inactive

* * *

- Tested on: SN12C
- Method notes: NCI tumour cell line growth inhibition, 48 h
The source made the active and inactive calls. Rule as the data show it: active = GI50 up to about 1.1 µM and inactive = higher.
Quantity name: GI50

COc1c(-c2ccc(O)c(O)c2)oc2c(O)c(O)cc(O)c2c1=O    16.9 µM (inactive)
COc1cc(OC)c(/C=N\Nc2nc3ccccc3c(=O)n2-c2ccccc2)c(OC)c1    30.7 µM (inactive)
NC(=O)c1cc2ccccc2o/c1=N/O    > 100 µM (inactive)
C[C@@H](NC1CCCC[C@@H]1O)c1ccccc1 (stereo partly specified)    > 100 µM (inactive)
Cc1ccc(/C=C/C(=O)c2cccc3ccccc23)cc1    14.3 µM (inactive)

Consider the additional compound presented here.
Please report the recorded GI50 for c1ccc2c(c1)OC(N1CCCC1)c1cnc(N3CCCC3)nc1-2 (stereo unspecified) . 45.2 µM (inactive)

* * *

- Tested on: HL-60
- Method notes: NCI tumour cell line growth inhibition, 48 h
Activity calls are given as the source filed them. Rule as the data show it: active = GI50 up to about 1.1 µM and inactive = higher.
Quantity name: GI50

Please report the recorded GI50 for "O=C(O)CN(CC(=O)O)c1ccccc1" . 44.5 µM (inactive)

Please report the recorded GI50 for COC(CO[Si](C)(C)N[Si](C)(C)OCC(OC)c1ccccc1)c1ccccc1 (stereo not drawn) . > 100 µM (inactive)

Please report the recorded GI50 for "CCNC(=S)N/N=C/c1cc(OC)ccc1O" . > 100 µM (inactive)

* * *

- System: NCI/ADR-RES
- Method notes: NCI tumour cell line growth inhibition, 48 h
The source made the active and inactive calls. Rule as the data show it: active = GI50 up to about 1.1 µM and inactive = higher.
Quantity name: GI50

Cc1ccc(NC(Nc2ccc(C)cc2C)=C(C(Cl)=C(Cl)Cl)[N+](=O)[O-])c(C)c1    7.21 µM (inactive)

Please report the recorded GI50 for "O=C1CCCC2=C1CC1=C(CCCC1=O)N2c1ccccc1C(=O)O" . > 100 µM (inactive)

Please report the recorded GI50 for OC(c1cc(-c2ccc(C(F)(F)F)cc2)nc(C(F)(F)F)c1)C1CCCCN1 (stereo not drawn) [ENPIROLINE PHOSPHATE] . 2.62 µM (inactive)

* * *

- Tested on: NCI-H522
- Method notes: NCI tumour cell line growth inhibition, 48 h
Activity calls are given as the source filed them. Rule as the data show it: active = GI50 up to about 1.1 µM and inactive = higher.
Quantity name: GI50

Take a look at these entries with their results.
Cc1ccc2nc(-c3ccc(NC(=O)c4ccc(N)cc4)c(S(=O)(=O)O)c3)sc2c1    > 100 µM (inactive)
COc1ccc(/C=C/c2cc(OC)c(OC)c(OC)c2)cc1OC    68.5 µM (inactive)
C=C1CN2CC(=C)CN(C1)CS(=O)(=O)N1CC(=C)CN(CC(=C)C1)S(=O)(=O)N1CC(=C)CN(CC(=C)C1)S(=O)(=O)C2    32.4 µM (inactive)

Under NCI-H522: GI50 value of "CCOC(=O)c1c(CN2CCNCC2)nc2ccc(Cl)cc2c1-c1ccccc1" ? 4.38 µM (inactive)

Under NCI-H522: GI50 value of "O=C(O)CN(CC(=O)O)c1ccccc1" ? 26.9 µM (inactive)

Under NCI-H522: GI50 value of COC(=O)C1=C(C[S+]([O-])c2ccc([N+](=O)[O-])cc2[N+](=O)[O-])C2C=CC1C2 (stereo not drawn) ? 13.8 µM (inactive)

Under NCI-H522: GI50 value of O=C1C2CCC(C2)C12CC1(c3ccccc3)C(=O)c3ccccc3N1O2 (stereo not drawn) ? > 100 µM (inactive)

Under NCI-H522: GI50 value of "O=C(N[C@@H](c1ccccc1)[C@@H](O)C(=O)OCc1ccc([N+](=O)[O-])cc1)c1ccccc1" ? > 100 µM (inactive)

* * *

- Tested on: IGROV-1
- Method notes: NCI tumour cell line growth inhibition, 48 h
Activity calls are given as the source filed them. No stated cut-off is given here; in the data, active = GI50 up to about 1.1 µM and inactive = higher.
Quantity name: GI50

Nc1n/c(=N\c2ccccc2)ss1    > 100 µM (inactive)
COc1cc(-c2coc3c(OC)c(OC4OC(COC5OC(C)C(O)C(O)C5O)C(O)C(O)C4O)c(OC)c(O)c3c2=O)cc(C)c1O (stereo unspecified)    17 µM (inactive)
Oc1c(Cl)cc2cc1-c1cc(cc(Cl)c1O)CCc1c(cc(Cl)c(O)c1Cl)-c1cc(Cl)c(c(Cl)c1O)/C=C\2    8.99 µM (inactive)

Please report the recorded GI50 for "Nc1ccc(-c2nc3cc(F)ccc3s2)cc1Cl" . < 0.01 µM (active)

Please report the recorded GI50 for "O=c1[nH]nc(Cc2ccccc2)n1/N=C/c1ccccc1O" . 83.8 µM (inactive)

* * *

- Tested on: PC-3
- Method notes: NCI tumour cell line growth inhibition, 48 h
Calls of active or inactive are those of the source. Cut-off read from the data, not from the text of the source: active = GI50 up to about 1.1 µM and inactive = higher.
Tick one outcome: active, inactive

ONCCCn1cnc2c(NC3CC3)ncnc21    inactive
COc1cc(C2SCC(=O)N2c2ccc(Oc3ccc(Cl)cc3)c(Cl)c2)cc(OC)c1OC (centres undefined)    inactive
C=C1CC(C)(c2cccc(Nc3nc4ccccc4c4occc34)c2)OC1=O (centres undefined)    inactive

Fill in: this test's call for "Cc1cc([N+](=O)[O-])c(C)c(Br)c1C" is ___ inactive

Fill in: this test's call for "CC(=O)Oc1ccc2cc(Oc3ccccc3)c(=O)oc2c1" is ___ inactive

Fill in: this test's call for "N=C(N)SCCON1C(=O)c2ccccc2C1=O" is ___ inactive

Fill in: this test's call for "CC(/C=N\NC(=S)N(C)C)=N/NC(=S)N(C)C" is ___ active

Fill in: this test's call for "CCc1ccc2c(c1)/C(=C1/Nc3ccccc3/C1=N/O)C(=O)N2" is ___ inactive

Fill in: this test's call for C[C@]12CC[C@@H]3c4ccc(O)cc4CC[C@H]3[C@@H]1CC[C@@H]2OC(=O)CCC1CCCC1 [ESTRADIOL CYPIONATE] is ___ inactive

Fill in: this test's call for "COc1ccc(/C=C2\N=C(SC)NC2=O)cc1" is ___ inactive

Fill in: this test's call for COc1ccc(/C=C2\CCC(CNc3cc(C)on3)C2=O)cc1 (centres undefined) is ___ inactive

Fill in: this test's call for "NC(=O)c1cc2ccccc2o/c1=N/O" is ___ inactive

Fill in: this test's call for "COc1ccc(/N=N/C(=NNC(=O)c2ccc(C)cc2)c2ccc(N(C)C)cc2)cc1" is ___ inactive

Fill in: this test's call for Clc1ccc(C2ON=C(c3ccccc3)N2C23CC4CC(CC(C4)C2)C3)cc1Cl (centres undefined) is ___ inactive
